- System: PSN1
- test method notes: Chemosensitivity, 96 h continuous exposure, MTT assay
- Type: cell-based, human
- assay context: ratio of IC50, PSN1
value type: Relative potency (+ anion to no anion), Ratio + anion:no anion
Could you keep your reply to the number by itself?

*Q* Which Relative potency (+ anion to no anion), Ratio + anion:no anion is reported for this molecule? O=P([O-])([O-])Oc1ccccc1.[Cu+2].[Cu+2].[Cu+2].c1ccc(-c2csc(NCCN(CCNc3nc(-c4ccccn4)cs3)CCNc3nc(-c4ccccn4)cs3)n2)nc1.c1ccc(-c2csc(NCCN(CCNc3nc(-c4ccccn4)cs3)CCNc3nc(-c4ccccn4)cs3)n2)nc1 [[L2Cu3(O3POPh)]4+]
*A* 0.0333

*Q* Which Relative potency (+ anion to no anion), Ratio + anion:no anion is reported for this molecule? [Cu+2].[Cu+2].[Cu+2].c1ccc(-c2csc(NCCN(CCNc3nc(-c4ccccn4)cs3)CCNc3nc(-c4ccccn4)cs3)n2)nc1.c1ccc(-c2csc(NCCN(CCNc3nc(-c4ccccn4)cs3)CCNc3nc(-c4ccccn4)cs3)n2)nc1 [[L2Cu3]6+]
*A* 1

*Q* Which Relative potency (+ anion to no anion), Ratio + anion:no anion is reported for this molecule? CC(=O)[O-].CC(=O)[O-].CC(=O)[O-].O=P([O-])([O-])[O-].[Zn+2].[Zn+2].[Zn+2].c1ccc(-c2csc(NCCN(CCNc3nc(-c4ccccn4)cs3)CCNc3nc(-c4ccccn4)cs3)n2)nc1.c1ccc(-c2csc(NCCN(CCNc3nc(-c4ccccn4)cs3)CCNc3nc(-c4ccccn4)cs3)n2)nc1 [[L2Zn3(PO4)]3+]
*A* 1.50

*Q* Which Relative potency (+ anion to no anion), Ratio + anion:no anion is reported for this molecule? O=S(=O)(O)O.[Zn+2].[Zn+2].[Zn+2].c1ccc(-c2csc(NCCN(CCNc3nc(-c4ccccn4)cs3)CCNc3nc(-c4ccccn4)cs3)n2)nc1.c1ccc(-c2csc(NCCN(CCNc3nc(-c4ccccn4)cs3)CCNc3nc(-c4ccccn4)cs3)n2)nc1 [[L2Zn3(SO4)]4+]
*A* 0.05

*Q* Which Relative potency (+ anion to no anion), Ratio + anion:no anion is reported for this molecule? O=P(O)(O)Oc1ccccc1.[Zn+2].[Zn+2].[Zn+2].c1ccc(-c2csc(NCCN(CCNc3nc(-c4ccccn4)cs3)CCNc3nc(-c4ccccn4)cs3)n2)nc1.c1ccc(-c2csc(NCCN(CCNc3nc(-c4ccccn4)cs3)CCNc3nc(-c4ccccn4)cs3)n2)nc1 [[L2Zn3(O3POPh)]4+]
*A* 0.04

###

- Test system: BxPC3
- test method notes: Chemosensitivity, 96 h continuous exposure, MTT assay
- Assay type: cell-based, human
- assay context: ratio of IC50, BXPC3
// Relative potency (+ anion to no anion), Ratio + anion:no anion lookup, one value per entry
Could you keep your reply to the number by itself?

1) O=P([O-])([O-])Oc1ccccc1.[Cu+2].[Cu+2].[Cu+2].c1ccc(-c2csc(NCCN(CCNc3nc(-c4ccccn4)cs3)CCNc3nc(-c4ccccn4)cs3)n2)nc1.c1ccc(-c2csc(NCCN(CCNc3nc(-c4ccccn4)cs3)CCNc3nc(-c4ccccn4)cs3)n2)nc1 [[L2Cu3(O3POPh)]4+] ... 134.82
2) O=P(O)(O)Oc1ccccc1.[Zn+2].[Zn+2].[Zn+2].c1ccc(-c2csc(NCCN(CCNc3nc(-c4ccccn4)cs3)CCNc3nc(-c4ccccn4)cs3)n2)nc1.c1ccc(-c2csc(NCCN(CCNc3nc(-c4ccccn4)cs3)CCNc3nc(-c4ccccn4)cs3)n2)nc1 [[L2Zn3(O3POPh)]4+] ... 3.55
3) CC(=O)[O-].CC(=O)[O-].CC(=O)[O-].O=P([O-])([O-])[O-].[Zn+2].[Zn+2].[Zn+2].c1ccc(-c2csc(NCCN(CCNc3nc(-c4ccccn4)cs3)CCNc3nc(-c4ccccn4)cs3)n2)nc1.c1ccc(-c2csc(NCCN(CCNc3nc(-c4ccccn4)cs3)CCNc3nc(-c4ccccn4)cs3)n2)nc1 [[L2Zn3(PO4)]3+] ... 2.28
4) CC(=O)[O-].CC(=O)[O-].CC(=O)[O-].CC(=O)[O-].CC(=O)[O-].CC(=O)[O-].[Zn+2].[Zn+2].[Zn+2].c1ccc(-c2csc(NCCN(CCNc3nc(-c4ccccn4)cs3)CCNc3nc(-c4ccccn4)cs3)n2)nc1.c1ccc(-c2csc(NCCN(CCNc3nc(-c4ccccn4)cs3)CCNc3nc(-c4ccccn4)cs3)n2)nc1 [[L2Zn3]6+] ... 1
5) O=S(=O)([O-])[O-].[Cu+2].[Cu+2].[Cu+2].c1ccc(-c2csc(NCCN(CCNc3nc(-c4ccccn4)cs3)CCNc3nc(-c4ccccn4)cs3)n2)nc1.c1ccc(-c2csc(NCCN(CCNc3nc(-c4ccccn4)cs3)CCNc3nc(-c4ccccn4)cs3)n2)nc1 [[L2Cu3(SO4)]4+] ... 1.68

Field: next compound
*Q* Entry [Cu+2].[Cu+2].[Cu+2].c1ccc(-c2csc(NCCN(CCNc3nc(-c4ccccn4)cs3)CCNc3nc(-c4ccccn4)cs3)n2)nc1.c1ccc(-c2csc(NCCN(CCNc3nc(-c4ccccn4)cs3)CCNc3nc(-c4ccccn4)cs3)n2)nc1 [[L2Cu3]6+] , system BxPC3: what Relative potency (+ anion to no anion), Ratio + anion:no anion was measured?
*A* 1

###

// Relative potency (+ anion to no anion), Ratio + anion:no anion lookup, one value per entry
- System: ARPE-19 non-cancer cells
- test method notes: Chemosensitivity, 96 h continuous exposure, MTT assay
- Assay type: cell-based, human
- assay context: ratio of IC50, ARPE-19

1) CC(=O)[O-].CC(=O)[O-].CC(=O)[O-].CC(=O)[O-].CC(=O)[O-].CC(=O)[O-].[Zn+2].[Zn+2].[Zn+2].c1ccc(-c2csc(NCCN(CCNc3nc(-c4ccccn4)cs3)CCNc3nc(-c4ccccn4)cs3)n2)nc1.c1ccc(-c2csc(NCCN(CCNc3nc(-c4ccccn4)cs3)CCNc3nc(-c4ccccn4)cs3)n2)nc1 [[L2Zn3]6+] ... 1

*Q* Which Relative potency (+ anion to no anion), Ratio + anion:no anion is reported for this molecule? [Cu+2].[Cu+2].[Cu+2].c1ccc(-c2csc(NCCN(CCNc3nc(-c4ccccn4)cs3)CCNc3nc(-c4ccccn4)cs3)n2)nc1.c1ccc(-c2csc(NCCN(CCNc3nc(-c4ccccn4)cs3)CCNc3nc(-c4ccccn4)cs3)n2)nc1 [[L2Cu3]6+]
*A* 1

###

// Relative potency (+ anion to no anion), Ratio + anion:no anion lookup, one value per entry
- System: H460
- test method notes: Chemosensitivity, 96 h continuous exposure, MTT assay
- Format: cell-based, human
- assay context: ratio of IC50, H460
Could you keep your reply to the number by itself?

1. O=P([O-])([O-])Oc1ccccc1.[Cu+2].[Cu+2].[Cu+2].c1ccc(-c2csc(NCCN(CCNc3nc(-c4ccccn4)cs3)CCNc3nc(-c4ccccn4)cs3)n2)nc1.c1ccc(-c2csc(NCCN(CCNc3nc(-c4ccccn4)cs3)CCNc3nc(-c4ccccn4)cs3)n2)nc1 [[L2Cu3(O3POPh)]4+] ... 0.72

Field: next compound
*Q* Which Relative potency (+ anion to no anion), Ratio + anion:no anion is reported for this compound? O=S(=O)([O-])[O-].[Cu+2].[Cu+2].[Cu+2].c1ccc(-c2csc(NCCN(CCNc3nc(-c4ccccn4)cs3)CCNc3nc(-c4ccccn4)cs3)n2)nc1.c1ccc(-c2csc(NCCN(CCNc3nc(-c4ccccn4)cs3)CCNc3nc(-c4ccccn4)cs3)n2)nc1 [[L2Cu3(SO4)]4+]
*A* 0.91

###

- Test system: ARPE-19 non-cancer cells
- test method notes: Chemosensitivity, 96 h continuous exposure, MTT assay
- Type: cell-based, human
- assay context: ARPE-19 non-cancer; read-out: Mean IC50 values
value type: pIC50
# log scale: pIC50 equals minus log10 of the concentration in mol/L

Examples from the recorded data:
1) [Mn+2].[Mn+2].[Mn+2].c1ccc(-c2csc(NCCN(CCNc3nc(-c4ccccn4)cs3)CCNc3nc(-c4ccccn4)cs3)n2)nc1.c1ccc(-c2csc(NCCN(CCNc3nc(-c4ccccn4)cs3)CCNc3nc(-c4ccccn4)cs3)n2)nc1 [[L2Mn3]6+] ... 5.54
2) CC(=O)[O-].CC(=O)[O-].CC(=O)[O-].CC(=O)[O-].CC(=O)[O-].CC(=O)[O-].[Zn+2].[Zn+2].[Zn+2].c1ccc(-c2csc(NCCN(CCNc3nc(-c4ccccn4)cs3)CCNc3nc(-c4ccccn4)cs3)n2)nc1.c1ccc(-c2csc(NCCN(CCNc3nc(-c4ccccn4)cs3)CCNc3nc(-c4ccccn4)cs3)n2)nc1 [[L2Zn3]6+] ... 3.80

Field: next compound
*Q* Entry [Cu+2].c1ccc(-c2csc(NCCN(CCNc3nc(-c4ccccn4)cs3)CCNc3nc(-c4ccccn4)cs3)n2)nc1 [[LCu]2+] , system ARPE-19 non-cancer cells: what pIC50 was measured?
*A* 5.23
